- System: 762968-020-R-J2-PDC spheroids viability
- ASSAY SUMMARY: Anticancer human tumor 762968-020-R-J2-PDC patient-derived colon carcinoma cell line growth inhibition [TAK]
- APPLIED CONDITIONS: second compound 0.3 µM; first compound 0.000316 µM; hits give low values; spheroids with HUVEC and MSC
Below is a list of entries, each paired with its recorded viability, T/C value.
A number alone suffices; assume %.

Some solved cases for reference:
INSERT INTO assay_data (compound, recorded_result) VALUES
  ('COC1CC2CCC(C)C(O)(O2)C(=O)C(=O)N2CCCCC2C(=O)OC(C(C)CC2CCC(OCCO)C(OC)C2)CC(=O)C(C)C=C(C)C(O)C(OC)C(=O)C(C)CC(C)C=CC=CC=C1C (centres undefined) + CC(C)NCC(C(=O)N1CCN(c2ncnc3c2C(C)CC3O)CC1)c1ccc(Cl)cc1', 102),
  ('CC(C)CC(NC(=O)C(Cc1ccccc1)NC(=O)c1cnccn1)B(O)O (centres undefined) + CC(C)NCC(C(=O)N1CCN(c2ncnc3c2C(C)CC3O)CC1)c1ccc(Cl)cc1', 108),
  ('CC(C)CC(NC(=O)CNC(=O)c1cc(Cl)ccc1Cl)B1OC(=O)CC(CC(=O)O)(C(=O)O)O1 (centres undefined) + CC(C)NCC(C(=O)N1CCN(c2ncnc3c2C(C)CC3O)CC1)c1ccc(Cl)cc1', 100);

The recorded viability, T/C with 762968-020-R-J2-PDC spheroids viability for CC(C)n1nc(-c2ccc3oc(N)nc3c2)c2c(N)ncnc21 + CC(C)NCC(C(=O)N1CCN(c2ncnc3c2C(C)CC3O)CC1)c1ccc(Cl)cc1 was 96.5

---

- System: 762968-020-R-J2-PDC spheroids viability
- ASSAY SUMMARY: Anticancer human tumor 762968-020-R-J2-PDC cell line growth inhibition [TAK];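 note: spheroids exposed to drug for 7 days before readout; 100% = DMSO vehicle control wells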
- APPLIED CONDITIONS: second compound 3 µM; first compound 0.00316 µM; hits give low values; spheroids with HUVEC and MSC
ENDPOINT LABEL: viability, T/C (%)
A number alone suffices; assume %.

INSERT INTO assay_data (compound, endpoint_label, units_of_measure, recorded_result) VALUES
  ('CC(C)n1nc(-c2ccc3oc(N)nc3c2)c2c(N)ncnc21 + CC(C)NCC(C(=O)N1CCN(c2ncnc3c2C(C)CC3O)CC1)c1ccc(Cl)cc1', 'viability, T/C', '%', 103),
  ('CC(C)CC(NC(=O)CNC(=O)c1cc(Cl)ccc1Cl)B1OC(=O)CC(CC(=O)O)(C(=O)O)O1 (stereo not given) + CC(C)NCC(C(=O)N1CCN(c2ncnc3c2C(C)CC3O)CC1)c1ccc(Cl)cc1', 'viability, T/C', '%', 98.2),
  ('COC1CC2CCC(C)C(O)(O2)C(=O)C(=O)N2CCCCC2C(=O)OC(C(C)CC2CCC(OCCO)C(OC)C2)CC(=O)C(C)C=C(C)C(O)C(OC)C(=O)C(C)CC(C)C=CC=CC=C1C (stereo not given) + CC(C)NCC(C(=O)N1CCN(c2ncnc3c2C(C)CC3O)CC1)c1ccc(Cl)cc1', 'viability, T/C', '%', 109);

The recorded viability, T/C with 762968-020-R-J2-PDC spheroids viability for COc1c(OCCCN2CCOCC2)ccc2c3n(c(=NC(=O)c4cnc(N)nc4)nc12)CCN3 + CC(C)NCC(C(=O)N1CCN(c2ncnc3c2C(C)CC3O)CC1)c1ccc(Cl)cc1 was 105

The recorded viability, T/C with 762968-020-R-J2-PDC spheroids viability for CC(C)CC(NC(=O)C(Cc1ccccc1)NC(=O)c1cnccn1)B(O)O (stereo not given) + CC(C)NCC(C(=O)N1CCN(c2ncnc3c2C(C)CC3O)CC1)c1ccc(Cl)cc1 was 106

Reference source: PubChem BioAssay AID2060349
